- target-system: thrombin (Homo sapiens, UniProt P00734)
- Construct: consists of two polypeptide chains of 36 (light chain) and 259 amino acid
- experiment-summary: Thrombin inhibition screen of crude macrocycle reactions (residual thrombin activity, fluorogenic substrate Z-Gly-Gly-Arg-AMC)
- Assay type: biochemical
- setup-conditions: 10 µM macrocycle concentration; crude reactions, Library 1a-l; scaffold AA1-AA2-AA3 combined with 1-16 or '-'
Numbered stars: 1 amine (or outer) side, 2 acyl side, 3 side chain; on linkers, the order of the positions; unused ones are H or OH. Bridge positions count the residues as written; N and C are the ends. Square brackets hold non-standard residues; d marks the D form. Peptide text beside a SMILES is read from it. * marks the point of attachment. Pyrazinoyl(5-oxo-4H) = O=C(c1c[nH]c(=O)cn1)*; Nicotinoyl(6-OMe) = COc1ccc(C(=O)*)cn1; Phenoxyacetyl = O=C(COc1ccccc1)*; Cysteamide = C(CS[*:3])N[*:1]; Bz = O=C(c1ccccc1)*; Mpa = O=C(O)CCS
Below, each of the compounds is paired with its reported percent residual thrombin activity value.
Numeric only. Scale: %

// known answers, use as guide
- NC(=O)CC[C@@H]1NC(=O)CCSSCCNC(=O)[C@H]2CCCN(C2)C(=O)[C@H](CCCCNC(=O)c2c[nH]c(=O)[nH]c2=O)NC1=O [Q-D1-B4/11]: 113.771
- CC(C)[C@@H]1NC(=O)CCSSCCNC(=O)[C@@H]2CCCN2C(=O)[C@H](CCCCNC(=O)COc2ccccc2)NC1=O [v-D1-B1/13] ([Mpa]VK(Phenoxyacetyl)P-Cysteamide; disulfide 1-C): 104.766
- C[C@H]1NC(=O)[C@H](CCCNC(=O)c2ccc(Cl)s2)NC(=O)CCSSCCNC(=O)CCNC1=O [D2-a-B2/14]: 108.542
- CC(C)[C@H]1NC(=O)[C@H](CCCCNC(=O)c2c[nH]c(=O)cn2)NC(=O)[C@@H]2CCCN2C(=O)CCSSCCNC1=O [B1-D1-v/9] ([Mpa]PK(Pyrazinoyl(5-oxo-4H))[dV]-Cysteamide; disulfide 1-C): 111.698
- COc1ccc(C(=O)NCCCC[C@@H]2NC(=O)[C@@H]3CCCN3C(=O)CCSSCCNC(=O)[C@@H](C(C)C)NC2=O)cn1 [B1-D1-v/10] ([Mpa]PK(Nicotinoyl(6-OMe))[dV]-Cysteamide; disulfide 1-C): 107.398

Fill in the blank: the reported percent residual thrombin activity of Cc1cc(C(=O)NCCC[C@@H]2NC(=O)CCSSCCNC(=O)[C@H](Cc3cnc[nH]3)NC(=O)c3cccc(c3)CNC2=O)no1 [D2-B5-H/3] is ____.
99.7053

Fill in the blank: the reported percent residual thrombin activity of CC[C@H](C)[C@@H]1NC(=O)CCSSCCNC(=O)[C@H](CCCCNC(=O)c2cc(C)on2)NC(=O)c2cccc(c2)CNC1=O [I-B5-D1/3] is ____.
104.965

Fill in the blank: the reported percent residual thrombin activity of CC(C)[C@H]1NC(=O)[C@H](CCCCNC(=O)c2ccccc2)NC(=O)[C@@H]2CCCN2C(=O)CCSSCCNC1=O [B1-D1-v/1] ([Mpa]PK(Bz)[dV]-Cysteamide; disulfide 1-C) is ____.
107.218

Fill in the blank: the reported percent residual thrombin activity of C[C@H]1NC(=O)CCSSCCNC(=O)[C@H](CCCCNC(=O)c2ccccc2)NC(=O)CCNC1=O [a-B2-D1/1] is ____.
107.599
